meta.source: paper PMC4336329

Biological target: human ether-à-go-go-related gene (hERG) potassium channel (human, UniProt Q12809);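 further: peak tail current of the secondary pulse compared with the same well before compound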
Sequence (Q12809 whole entry, looked up): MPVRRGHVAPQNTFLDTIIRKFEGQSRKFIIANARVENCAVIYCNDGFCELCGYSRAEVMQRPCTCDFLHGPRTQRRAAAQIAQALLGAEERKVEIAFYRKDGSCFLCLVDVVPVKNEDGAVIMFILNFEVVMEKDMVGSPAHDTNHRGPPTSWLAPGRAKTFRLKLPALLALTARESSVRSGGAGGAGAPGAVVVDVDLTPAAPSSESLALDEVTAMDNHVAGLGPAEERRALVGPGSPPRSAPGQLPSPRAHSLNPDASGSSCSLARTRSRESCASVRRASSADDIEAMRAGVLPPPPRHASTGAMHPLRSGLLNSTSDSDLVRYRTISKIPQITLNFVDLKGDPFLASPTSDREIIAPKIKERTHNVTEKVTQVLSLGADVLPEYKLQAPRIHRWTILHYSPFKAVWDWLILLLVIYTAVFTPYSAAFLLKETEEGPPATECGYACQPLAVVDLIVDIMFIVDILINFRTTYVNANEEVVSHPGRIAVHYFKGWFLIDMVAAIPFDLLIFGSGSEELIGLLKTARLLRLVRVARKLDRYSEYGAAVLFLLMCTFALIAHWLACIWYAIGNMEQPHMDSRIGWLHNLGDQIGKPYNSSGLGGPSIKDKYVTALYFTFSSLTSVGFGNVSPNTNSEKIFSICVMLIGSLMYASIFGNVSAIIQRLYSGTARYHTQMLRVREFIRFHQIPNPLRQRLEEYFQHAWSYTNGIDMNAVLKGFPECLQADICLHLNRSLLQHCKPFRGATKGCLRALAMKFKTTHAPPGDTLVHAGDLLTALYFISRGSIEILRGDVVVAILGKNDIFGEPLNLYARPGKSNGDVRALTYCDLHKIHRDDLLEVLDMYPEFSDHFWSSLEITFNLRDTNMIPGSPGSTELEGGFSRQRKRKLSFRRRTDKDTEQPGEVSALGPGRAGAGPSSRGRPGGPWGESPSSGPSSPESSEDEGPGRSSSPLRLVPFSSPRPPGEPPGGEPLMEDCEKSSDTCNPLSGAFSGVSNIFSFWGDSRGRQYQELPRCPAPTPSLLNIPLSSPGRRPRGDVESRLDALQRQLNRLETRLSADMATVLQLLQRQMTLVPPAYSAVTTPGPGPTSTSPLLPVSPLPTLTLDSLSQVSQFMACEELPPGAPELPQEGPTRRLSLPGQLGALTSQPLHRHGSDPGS
Test: primary screen, population patch clamp on CHO cells stably expressing hERG; higher = less effect of the substance
The campaign covered roughly 310,000 compounds. About 14,000 (4.5%) showed an effect of 50% or more. The effect is printed as a negative number. Shown is part of a subset that was picked to be rich in strong results.
measure: hERG current change (%, negative = inhibition) at 10uM (%)

1) COc1ccccc1NC(=O)CCN1CCN(Cc2ccccc2)CC1	-22.3
2) CC1(C)SC(=S)N(NC(=O)Nc2ccccc2)C1N(O)C(=O)Nc1ccccc1 (stereo not shown)	12.7
3) CC1CN(CC(O)COc2ccc(C(=O)c3ccccc3)cc2)CC(C)O1 (stereo not shown)	-63.3
4) CC1CCN(CC(O)COc2ccc(-c3ccccc3)cc2)CC1.Cl (stereo not shown)	-81
5) COC(=O)C1CN(C(=O)C(C)Oc2ccccc2F)c2ccccc2O1 (stereo not shown)	15.6
6) CC1CCN(CC(O)COc2ccc(OCC(O)CN3CCC(C)CC3)cc2)CC1 (stereo not shown)	3.84
7) CC(=O)c1ccc(OCC(O)CN2CC(C)OC(C)C2)cc1.Cl (stereo not shown)	8.19
8) CCC(CC)C(=O)Nc1cc(C)cc(C)c1	0.735
9) NC(=O)c1cc([N+](=O)[O-])ccc1NCc1ccccn1	-73.8
10) O=C(CCn1c(=O)oc2ccccc21)Nc1ccc(C(=O)O)cc1	-45

---

Target: human ether-à-go-go-related gene (hERG) potassium channel (human, UniProt Q12809);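 further: peak tail current of the secondary pulse compared with the same well before compound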
Test: primary screen, population patch clamp on CHO cells stably expressing hERG; higher = less effect of the substance
Procedure: Briefly, Chinese hamster ovary (CHO) cells stably expressing the hERG channel were dislodged from tissue culture flasks and dispensed into PPC plates. […] During the recording, background leak currents were estimated by a 100 ms step to -80 mV from an initial holding potential of -70 mV and subtracted from the subsequent current measurement. The campaign was conducted in two phases using slight differences in recording protocol. […]
Hit rate of the full screen: of about 310,000 compounds, about 14,000 (4.5%) showed an effect of 50% or more. The effect is printed as a negative number. What follows is part of a selection rich in strong results, with near analogues and random picks from the rest.
measure: hERG current change (%, negative = inhibition) at 10uM (%)

1) c1ccc(CCNc2ncnc3ccccc23)cc1	-43.2
2) Cc1cc(C(=O)OCC(=O)Nc2cccc(S(=O)(=O)N3CCOCC3)c2)c(C)o1	-19.6
3) O=C(CCCCCn1c(=S)[nH]c2ccc(N3CCOCC3)cc2c1=O)NC1CCN(Cc2ccccc2)CC1	-9.35
4) CCOC(=O)Nc1ccc2c(c1)N(C(=O)CN(C)C)c1ccccc1CC2.Cl	-7.94
5) Cc1cc(C(=O)COC(=O)c2cccnc2Cl)c(C)n1CC1CCCO1 (stereo not shown)	-20.1
6) COc1ccc(Cc2nc3ccc(C(=O)N4CCCCC4CCO)cc3o2)cc1 (stereo not shown)	4.93
7) CN1CCN(CC(=O)NC23CC4CC(CC(C4)C2)C3)CC1.Cl	4.19
8) Cc1ccc(-c2noc(CN3CCN(c4ccccc4F)CC3)n2)cc1	8.71
9) Cc1cccc(Nc2nc(N)nc(CN3CCN(c4ccccc4F)CC3)n2)c1	-68.2
10) Cc1ccc(Nc2nc(N)nc(CN3CCN(c4ccccc4F)CC3)n2)cc1	-67.4
